Reference for the values: patent US20250250357A1

target: T1, human MSLN-R3-his protein (human, UniProt Q13421 487-598)
T1 construct: it is put last here; also called human MSLN-R3 protein; hMSLN-R3-his; not shown: His tag
T1 sequence (Q13421 495-606): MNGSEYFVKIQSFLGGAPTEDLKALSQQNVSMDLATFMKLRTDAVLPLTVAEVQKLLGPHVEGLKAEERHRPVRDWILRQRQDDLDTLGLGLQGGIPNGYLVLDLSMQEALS
assay: ELISA on coated antigen, antibody 0.0002 nM
readoutLabel: OD450 (OD)

1. S009-F7.30.5 (antibody, human IgG1, kappa, V domains shown, Human-murine chimeric antibody, human IgG1 heavy and kappa light constant regions) VH: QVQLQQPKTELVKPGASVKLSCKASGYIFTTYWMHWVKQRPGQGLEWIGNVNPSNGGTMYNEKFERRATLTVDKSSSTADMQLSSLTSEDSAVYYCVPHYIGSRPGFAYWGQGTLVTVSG VL: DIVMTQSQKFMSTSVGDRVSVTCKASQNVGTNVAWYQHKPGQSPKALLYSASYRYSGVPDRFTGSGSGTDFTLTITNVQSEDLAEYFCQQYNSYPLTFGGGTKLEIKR; 0.25
2. S009-F7.21.16 (antibody, human IgG1, kappa, V domains shown, Human-murine chimeric antibody, human IgG1 heavy and kappa light constant regions) VH: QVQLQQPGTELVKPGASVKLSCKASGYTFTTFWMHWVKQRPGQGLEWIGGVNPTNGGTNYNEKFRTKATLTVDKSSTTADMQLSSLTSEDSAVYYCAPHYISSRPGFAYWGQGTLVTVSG VL: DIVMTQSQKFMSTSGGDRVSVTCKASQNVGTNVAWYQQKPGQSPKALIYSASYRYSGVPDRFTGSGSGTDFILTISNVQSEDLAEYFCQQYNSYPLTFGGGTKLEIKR; 0.31
3. S009-F7.6.17 (antibody, human IgG1, kappa, V domains shown, Human-murine chimeric antibody, human IgG1 heavy and kappa light constant regions) VH: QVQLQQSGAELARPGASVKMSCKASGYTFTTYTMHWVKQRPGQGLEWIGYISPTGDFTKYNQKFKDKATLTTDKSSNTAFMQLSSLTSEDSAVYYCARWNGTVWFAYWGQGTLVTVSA VL: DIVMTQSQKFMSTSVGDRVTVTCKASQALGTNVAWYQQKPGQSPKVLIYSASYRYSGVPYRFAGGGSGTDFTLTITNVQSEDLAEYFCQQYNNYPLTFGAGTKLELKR; 0.13
4. S009-F7.18.10 (antibody, human IgG1, kappa, V domains shown, Human-murine chimeric antibody, human IgG1 heavy and kappa light constant regions) VH: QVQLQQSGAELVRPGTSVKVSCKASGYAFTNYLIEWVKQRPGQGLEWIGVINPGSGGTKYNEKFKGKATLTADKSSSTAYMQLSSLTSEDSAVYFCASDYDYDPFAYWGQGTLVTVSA VL: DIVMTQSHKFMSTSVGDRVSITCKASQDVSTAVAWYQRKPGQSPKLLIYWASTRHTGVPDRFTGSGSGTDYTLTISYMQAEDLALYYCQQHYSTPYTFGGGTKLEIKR; 0.05
